Cited source: patent US20240002497A1

In this section, each of the binders is paired with its reported EC50.
# SYSTEM UNDER TEST: T1, huNav1.7α + β1-β2-β3 (human, UniProt Q15858 1-1988; A5A6L6 19-218; O60939 30-215; Q2KI11 23-215)
# T1 construct: also called huNav1.7-beta1-beta2-beta3; huNav1.7-β1-β2-β3
# ASSAY PROTOCOL: binding FACS, CHO FlpIn
Express your answer in nM, writing the number without its unit.

BINDER	READOUT VALUE
F010301932 (VHH, also called F0103464B09(L11V, K83R, V89L)) VHH: EVQLVESGGGVVQPGGSLRLSCATTSRAFIRDVFTGWYRRVPGKERELVARIYNGGNTNYADFAKGRFSISRDNAKKMVTLRMSNLRPEDTGLYYCLFSGTINTGREYRSGDYWGQGTLVTVSS	4.3
F010301873 (VHH, also called F0103464B09(L11V, R39Q, S68T, T79Y, R81Q, S82aN, N82bS, K83R, G88A, V89L)) VHH: EVQLVESGGGVVQPGGSLRLSCATTSRAFIRDVFTGWYRQVPGKERELVARIYNGGNTNYADFAKGRFTISRDNAKKMVYLQMNSLRPEDTALYYCLFSGTINTGREYRSGDYWGQGTLVTVSS	9
F010302348 (VHH) VHH: EVQLVESGGGVVQPGGSLRLSCAASHRAFIRDLFTGWYRQAPGKQRELVARIYESGNTNYADSAKGRFTISRDNAKKTVYLQMNSLRPEDTALYYCLFSGTISTGREYRSGDYWGQGTLVTVSS	6.7
F010301936 (VHH, also called F0103464B09(L11V, R81Q, K83R, V89L)) VHH: EVQLVESGGGVVQPGGSLRLSCATTSRAFIRDVFTGWYRRVPGKERELVARIYNGGNTNYADFAKGRFSISRDNAKKMVTLQMSNLRPEDTGLYYCLFSGTINTGREYRSGDYWGQGTLVTVSS	4.4
F010301938 (VHH, also called F0103464B09(L11V, N82bS, K83R, V89L)) VHH: EVQLVESGGGVVQPGGSLRLSCATTSRAFIRDVFTGWYRRVPGKERELVARIYNGGNTNYADFAKGRFSISRDNAKKMVTLRMSSLRPEDTGLYYCLFSGTINTGREYRSGDYWGQGTLVTVSS	4.8
F010302338 (VHH) VHH: EVQLVESGGGVVQPGGSLRLSCAASHRAFIRDVFTGWYRRAPGKQRELVARIYESGNTQYADSAKGRFTISRDNAKKTVYLQMNSLRPEDTALYYCLFSGTISTGREYRSGDYWGQGTLVTVSS	3.4

F010301874 (VHH, also called F0103464B09(L11V, V40A, S68T, T79Y, R81Q, S82aN, N82bS, K83R, G88A, V89L)) VHH: EVQLVESGGGVVQPGGSLRLSCATTSRAFIRDVFTGWYRRAPGKERELVARIYNGGNTNYADFAKGRFTISRDNAKKMVYLQMNSLRPEDTALYYCLFSGTINTGREYRSGDYWGQGTLVTVSS yielded EC50 of 6.5

F010301877 (VHH, also called F0103464B09(L11V, S68T, K76N, T79Y, R81Q, S82aN, N82bS, K83R, G88A, V89L)) VHH: EVQLVESGGGVVQPGGSLRLSCATTSRAFIRDVFTGWYRRVPGKERELVARIYNGGNTNYADFAKGRFTISRDNAKNMVYLQMNSLRPEDTALYYCLFSGTINTGREYRSGDYWGQGTLVTVSS yielded EC50 of 13
